Listed below: pKi values for each entry.
# measured_on: T1, memapsin 2 (Homo sapiens, UniProt P56817)
# T1 construct: pET-11 vector-derived residues 1-15 of promemapsin 2-T1 (N, cleaved yes); made in house; host or cells: E. coli
# assay_details: Inhibition of memapsin 2 proteolytic activity, fluorogenic substrate FS-2
# Format: biochemical
# test_parameters: memapsin 2; apparent Ki in presence of substrate FS-2; read-out: Ki app
Remember, pKi is on a log scale: it is -log10 of the molar concentration.

Solved entries (count: 8):
INSERT INTO assay_data (molecule, experimental_result) VALUES
  ('CSCC[C@H](NC(=O)OCn1nc(C)cc1C)C(=O)N[C@@H](CC(C)C)[C@@H](O)C[C@@H](C)C(=O)N[C@H](C(=O)NCc1ccco1)C(C)C', 7.15),
  ('CSCC[C@H](NC(=O)NCc1ccco1)C(=O)N[C@@H](CC(C)C)[C@@H](O)C[C@@H](C)C(=O)N[C@H](C(=O)NCc1ccccc1)C(C)C', 6.42),
  ('CSCC[C@H](NC(=O)OCCn1nc(C)cc1C)C(=O)N[C@@H](CC(C)C)[C@@H](O)C[C@@H](C)C(=O)N[C@@H](CC(C)C)C(=O)NC(C)C', 6.44),
  ('CC(C)C[C@H](NC(=O)OC(C)(C)C)C(=O)N[C@@H](CCS(C)(=O)=O)C(=O)N[C@@H](CC(C)C)[C@@H](O)C[C@@H](C)C(=O)N[C@H](C(=O)NCc1ccccc1)C(C)C', 8.72),
  ('CSCC[C@H](NC(=O)c1cccc(C)c1C)C(=O)N[C@@H](CC(C)C)[C@@H](O)C[C@@H](C)C(=O)N[C@@H](CC(C)C)C(=O)NC(C)C', 6.05),
  ('CSCC[C@H](NC(=O)[C@@H](NC(=O)OC(C)(C)C)C(C)C)C(=O)N[C@@H](CC(C)C)[C@@H](O)C[C@@H](CC(N)=O)C(=O)N[C@H](C(=O)NCc1ccccc1)C(C)C', 6.97),
  ('CSCC[C@@H](NC(=O)[C@H](CC(C)C)NC(=O)OC(C)(C)C)C(=O)N[C@@H](CC(C)C)[C@@H](O)C[C@@H](C)C(=O)N[C@H](C(=O)NCc1ccccc1)C(C)C', 6.08),
  ('CC(C)C[C@H](NC(=O)OC(C)(C)C)C(=O)N[C@@H](CC1CCCO1)C(=O)N[C@@H](CC(C)C)[C@@H](O)C[C@@H](C)C(=O)N[C@@H](CC(C)C)C(=O)NC(C)C (some centres unmarked) [MMI-215]', 7.51);

Reported pKi for CC(C)C[C@H](NC(=O)[C@H](CC(N)=O)NC(=O)[C@@H](NC(=O)OC(C)(C)C)C(C)C)[C@@H](O)C[C@@H](C)C(=O)N[C@H](C(=O)NCc1ccccc1)C(C)C was 8.04

Reported pKi for CCCCNC(=O)[C@@H](NC(=O)C(C)(C)C[C@H](O)[C@H](CC(C)C)NC(=O)[C@H](CCSC)NC(=O)OCn1nc(C)cc1C)C(C)C was 5.75

Reported pKi for CSCC[C@H](NC(=O)OCc1ccoc1)C(=O)N[C@@H](CC(C)C)[C@@H](O)C[C@@H](C)C(=O)N[C@H](C(=O)NCc1ccccc1)C(C)C was 6.51
